Origin of the recorded values: patent US11433139B2

# Tested on: feline IL-31 15H05 mutant
# Sequence (as listed by the source, change not shown): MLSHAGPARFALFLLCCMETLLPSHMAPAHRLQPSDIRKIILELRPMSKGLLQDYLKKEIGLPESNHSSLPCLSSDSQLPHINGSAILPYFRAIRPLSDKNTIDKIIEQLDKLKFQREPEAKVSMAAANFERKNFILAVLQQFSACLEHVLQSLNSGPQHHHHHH
# Test description: Indirect ELISA, binding to feline IL-31 15H05 mutant
# Condition summary: compared with wildtype
Measurement label: binding to feline IL-31 15H05 mutant (ELISA)

[
  {
    "Molecule": "ZIL8: fully canine anti IL-31 antibody, VH SEQ ID NO: 79, VL SEQ ID NO: 81 (antibody, listed as Canis familiaris, V domains shown) VH: EVQLVESGGDLVKPAGSLRLSCVASGFTFSDYAMSWVRQAPGRGLQWVAGIDSVGSGTSYADAVKGRFTISRDDAKNTLYLQMFNLRAEDTAIYYCASGFPGSFEHWGQGTLVTVSS VL: QSVLTQPASVSGSLGQKVTISCTGSSSNIGSGYVGWYQQLPGTGPRTLIYYNSDRPSGVPDRFSGSRSGTTATLTISGLQAEDEADYYCSVYDRTFNAVFGGGT",
    "Recorded result": "binding was impacted"
  },
  {
    "Molecule": "ZIL94: fully canine anti IL-31 antibody, VH SEQ ID NO: 95, VL SEQ ID NO: 97 (antibody, listed as Canis familiaris, V domains shown) VH: EVQLVDSGGDLVKPGGSLRLSCVASGFTFSTYFMSWVRQAPGRGLQWVALISSDGSGTYYADAVKGRFTISRDNAKNTLYLQMNSLRAEDTAMYYCAIFWRAFNDWGQGTLVTVSS VL: QTVVIQEPSLSVSPGGTVTLTCGLNSGSVSTSNYPGWYQQTRGRTPRTIIYDTGSRPSGVPNRFSGSISGNKAALTITGAQPEDEADYYCSLYTDSDILVFGGGTHLTVL",
    "Recorded result": "binding was impacted"
  },
  {
    "Molecule": "ZIL11: fully canine anti IL-31 antibody, VH SEQ ID NO: 87, VL SEQ ID NO: 89 (antibody, listed as Canis familiaris, V domains shown) VH: EVQLVESGGDLVKPAGSLRLSCVASGFTFRTYVMNWVRQAPGKGLQWVASINGGGSSPTYADAVRGRFTVSRDNAQNSLFLQMNSLRAEDTAVYFCVVSMVGPFDYWGQGTLVTVSS VL: SSVLTQPPSVSVSLGQTATISCSGESLSNYYAQWFQQKAGQAPVLVIYKDTERPSGIPDRFSGSSSGNTHTLTISGARAEDEADYYCESAVSSDTIVFGGGT",
    "Recorded result": "binding was impacted"
  }
]
